Recorded values, source the supplement of paper PMC10567573.

B1: ZNF24 (parent)
chain: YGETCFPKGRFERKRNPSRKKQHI

# Variants of: B1
# assay.protocol: protein stability index of a GFP-peptide fusion (GPS, HEK-293T) (PSI 1-6); higher = more stable;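 further: lentivirally expressed fusions sorted by FACS into six bins by GFP to DsRed ratio, PSI derived from sequencing read proportions per bin multiplied by bin number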
# reported.conditions: c terminus: a fixed tail appended
parameter.measured: protein stability index
Give bare numbers.

N16S; 2.92
R10N; 2.93

For `G2M` , what is its reported protein stability index?
3
